The values you see were collected from ChEMBL document CHEMBL1201862.

# Test system: CCRF-CEM
# Protocol: NCI tumour cell line growth inhibition, 48 h
Activity calls are given as the source filed them. Rule as the data show it: active = GI50 up to about 1.1 µM and inactive = higher.
Give one outcome, nothing more. List: TRUE = active, FALSE = inactive

Task item: What call does the record list for O=C1O/C(=C(\Br)c2ccc([N+](=O)[O-])cc2)c2ccccc21 ?
Reply: FALSE

Task item: Record lookup: outcome of this test for O=C(O)c1cc(=O)c2cc(C(=O)c3cccs3)c(Cl)c(Cl)c2o1 ?
Reply: FALSE

Task item: So what was the verdict on COc1cc(OC(=O)c2c(O)cc(O)c(O)c2C)cc(C)c1C(=O)Oc1cc(C)c(C(=O)O)c(O)c1 in this test?
Reply: FALSE

Task item: # outcome recorded in this test, key = COC(=O)C1Cc2c([nH]c3ccccc23)C(c2ccccc2O)N1Cc1ccccc1 (stereo not given)
Reply: FALSE

Task item: Given COc1cc2cc3c4c(cc(OC)c(OC)c4c2cc1OC)CCN3C(=O)N(C)C , state the outcome it received in this test.
Reply: FALSE

Task item: // return assay outcome for Clc1ccccc1/C=C/c1cscn1
Reply: FALSE

Task item: Recorded test call requested for COc1cccc2c1C(=O)c1c(O)c3c(c(O)c1C2=O)C[C@@](O)(C(=O)CO)CC3OC1CC(N(C)CCOCC(OC(C)=O)OC(C)=O)C(O)C(C)O1 (stereo not given in full)
Reply: TRUE

Task item: Give the logged outcome of this assay for the following molecule: c1ccc(C2N=NN(c3ccccc3)C2N2CCCCC2)cc1 (stereo not given)
Reply: FALSE

Task item: // param item: Cc1nc2sc3ccccc3n2c(=O)c1/N=N/c1ccc(Cl)cc1 ; yields the recorded call
Reply: FALSE

Task item: Entry O=C(CCCN1CC=C(n2c(=O)[nH]c3ccccc32)CC1)c1cccs1 : call = ?
Reply: FALSE

Task item: What did this assay record as the result for CCc1nc(N)nc(N)c1-c1ccc(N2CCOCC2)c(N=[N+]=[N-])c1 ?
Reply: FALSE

Task item: Status in this test for NNC(=O)C(=O)N/N=C(\CCC(=O)Nc1ccc(Cl)cc1)Cc1nc2ccccc2s1 ?
Reply: FALSE

Task item: Outcome logged for C/C(=N\NC(=N)N)C(CN(CC(C)C)CC(C)C)C(=O)Nc1ccc(C)cc1C (stereo not given) in this assay:
Reply: FALSE

Task item: What outcome does the record of this test show for N#Cc1c(-c2ccccc2)c(C#N)c(=O)n(NS(=O)(=O)c2ccccc2)c1O ?
Reply: FALSE

Task item: Which result was noted for this molecule in the test: O=C(N/C(=C\c1ccc([N+](=O)[O-])cc1)c1nc2c(O)nc(S)nc2[nH]1)c1ccccc1
Reply: FALSE

* * *

# Tested on: SF-539
# Protocol: NCI tumour cell line growth inhibition, 48 h
The source made the active and inactive calls. Rule as the data show it: active = GI50 up to about 1.1 µM and inactive = higher.
Observable: GI50

Task item: Quick one: give measured GI50 for Cc1ccc(/C=N/Nc2cc(C)c3ccccc3n2)s1
Reply: 21.3 µM (inactive)

Task item: Give the measured GI50 for CC1=C(C(=O)OCCc2ccc([N+](=O)[O-])cc2)C(c2ccccc2[N+](=O)[O-])C(C(=O)OC(C)C)=C(C)N1 (configuration not stated)
Reply: 4.15 µM (inactive)

Task item: Given the compound CC(=O)NNc1nc(C)c(C(=O)/C=C/c2ccccc2Cl)s1 , write its reported GI50.
Reply: > 100 µM (inactive)

Task item: Name the recorded GI50 of the item CC(C)c1cccc(C(C)C)c1NC(=O)C(=O)Cc1nc2ccc([N+](=O)[O-])cc2nc1O in your answer.
Reply: 78.3 µM (inactive)

Task item: Entry Cc1cccc2c1[C@]13OC(C)[C@]4(C)CC5OC(=O)[C@@]1(C)[C@@H]5[C@]34C(=O)O2 (some centres not stated) needs its GI50 filled in; supply it.
Reply: > 100 µM (inactive)

Task item: Identify measured GI50 corresponding to N#Cc1c(-c2ccccc2)c(C#N)c(=S)n(C2OC(CO)C(O)C(O)C2O)c1N (configuration not stated)
Reply: > 100 µM (inactive)

Task item: Write down GI50 measured for item CCCCCCCCCCCCc1ccsc1-c1ccc(-c2ccc(-c3sccc3CCCCCCCCCCCC)s2)s1
Reply: > 100 µM (inactive)

Task item: Give GI50 for the following compound: Nc1ccc(C(=O)N/C(=C\C=C\c2ccco2)c2nc3c4c(ccc3[nH]2)C(=O)c2ccccc2C4=O)cc1
Reply: 17.2 µM (inactive)

Task item: Item Cc1nc2c(o1)C(=O)c1ccccc1/C2=N/c1ccccn1 : provide GI50
Reply: 18.2 µM (inactive)

Task item: Using the record for CC1=CC2=C(C(N)=O)C(=O)OC2(C)C(c2ccccc2)C1 (configuration not stated) , state its measured GI50.
Reply: > 100 µM (inactive)

Task item: In one line, give reported GI50 of the entry CC1CCC23COC(=O)C2C(O)CCC3C1(C)CC(O)c1ccoc1 (configuration not stated) .
Reply: > 100 µM (inactive)

Task item: Give GI50 for the following compound: CCN(CC)C(=S)N/N=C(\C)c1ccccc1O
Reply: 18 µM (inactive)

Task item: Give the reported GI50 for this compound. COCC[N+](CCNC(=O)c1cccc2c(N)c3cccc(C)c3nc12)(CCOC)Cc1ccc([N+](=O)[O-])cc1
Reply: 17.3 µM (inactive)

Task item: For the compound NC(=O)CC1(O)C=CC(=O)C=C1 , report GI50.
Reply: > 100 µM (inactive)

Task item: Output measured GI50 for this item: CC(=O)C1Cn2c(nc3ccccc32)C[Se]1 (configuration not stated)
Reply: 2.29 µM (inactive)

Task item: Return reported GI50. Input compound: NNC(=O)C(=O)N/N=C(\CCC(=O)Nc1ccc(Cl)cc1)Cc1nc2ccccc2s1
Reply: 32.7 µM (inactive)

Task item: Provide measured GI50 value, entry: O=C(NC(Nc1ccc(F)c(Cl)c1)(C(F)(F)F)C(F)(F)F)OCc1ccccc1
Reply: 17.6 µM (inactive)

Task item: Read the entry O=c1c2ccccc2nc(-c2ccccc2)n1NC1OC(CO)C(O)C(O)C1O (configuration not stated) and write its reported GI50.
Reply: > 100 µM (inactive)

Task item: Tell me measured GI50 for CC(=O)OCC1OC(n2c(C)cc(C)c(C#N)c2=S)C(OC(C)=O)C(OC(C)=O)C1OC(C)=O (configuration not stated) please.
Reply: > 100 µM (inactive)

Task item: Indicate the recorded GI50 value for this compound: Cc1ccc(S(=O)(=O)NC(=O)NC(CO)C(=O)O)cc1 (configuration not stated)
Reply: > 100 µM (inactive)

Task item: Given COc1cc2c(cc1OC)C(=O)/C(=C/c1ccc([N+](=O)[O-])cc1)CC2 , respond with its GI50.
Reply: > 10 µM (inactive)

Task item: Answer with the recorded GI50 for the compound listed here: COc1ccc(CCc2cc(OC)c(O)c(OC)c2)cc1
Reply: 60.7 µM (inactive)

Task item: Specify reported GI50 for the compound shown: Cc1csc(-n2nc(C)cc2C)n1
Reply: > 100 µM (inactive)

Task item: Using known records, supply GI50 for CC(=O)Nc1ccc(S(=O)(=O)/N=c2/sc(S(N)(=O)=O)nn2C)cc1
Reply: > 100 µM (inactive)

Task item: Assign GI50 to the following record: Cn1c2ccccc2n2c(=O)c3cccnc3c(C#N)c12
Reply: 66.4 µM (inactive)

Task item: Entry COc1ccc(Nc2c[nH]c(=O)[nH]c2=O)cc1 needs its GI50 filled in; supply it.
Reply: > 100 µM (inactive)

Task item: State its GI50 for this compound: COc1cccc(/C=C/c2ccnc3ccccc23)c1OC
Reply: > 10 µM (inactive)

Task item: Retrieve GI50 measured for CSC1C(=O)Nc2ccc3ccccc3c21 (configuration not stated) and print it.
Reply: 17.4 µM (inactive)

Task item: For the compound COC(=O)C1CCC(=O)N1C(c1ccccc1)c1ccc(OC)c(OC)c1 (configuration not stated) , give its measured GI50 value.
Reply: > 100 µM (inactive)

Task item: Report measured GI50; entry is O=C(Cc1ccccc1)N/N=C/c1ccccc1O
Reply: 24.8 µM (inactive)

Task item: For CCOC(=O)C1Cc2c(cc3c4c(cccc24)N(C(C)=O)C3)N(C)C1 (configuration not stated) , write its GI50.
Reply: 3.18 µM (inactive)

Task item: Give the value of GI50 reported for the following: N=C(N)SCCCN
Reply: 5.81 µM (inactive)

Task item: Write down GI50 measured for item c1ccc(C2N=NN(c3ccccc3)C2N2CCCCC2)cc1 (configuration not stated)
Reply: 55.8 µM (inactive)

Task item: Identify the reported GI50 for the following entry. Cc1nc2c3c(ncn2n1)Oc1c(c(-c2ccccc2)nn1-c1ccccc1)C3c1ccc(Cl)cc1 (configuration not stated)
Reply: 22.3 µM (inactive)

Task item: Supply reported GI50 belonging to this compound: Cc1c(C#N)c2nc3ccccc3n2c(=O)/c1=C/Nc1ccc(Cl)cc1
Reply: 12.1 µM (inactive)

Task item: Look up and state reported GI50 for Cc1cccc(C)c1NC(=O)C(C#N)C1=C(Cl)C(=O)c2ccccc2C1=O (configuration not stated)
Reply: 21.4 µM (inactive)

Task item: Provide only the value of recorded GI50 for CCc1nc(N)nc(N)c1-c1ccc(N2CCOCC2)c(N=[N+]=[N-])c1
Reply: 75.5 µM (inactive)

Task item: Answer with reported GI50 of CC1(C)CC(=O)c2c(nc(SSc3nc4c(c(-c5ccccc5)c3C#N)C(=O)CC(C)(C)C4)c(C#N)c2-c2ccccc2)C1
Reply: > 10 µM (inactive)

Task item: Identify measured GI50 corresponding to CC(=O)O[C@@H]1[C@@H](C)[C@]2(CC(c3ccoc3)OC2O)C2CCC3O[C@]3(C)[C@]2(C)[C@@H]1OC(C)=O (some centres not stated)
Reply: 22.7 µM (inactive)

Task item: Output GI50 of COC(=O)[C@H]1C=C[C@H](OC2OC(COC(C)=O)C(OC(C)=O)C(OC(C)=O)C2OC(C)=O)n2c(=O)n(-c3ccccc3)c(=O)n21 (some centres not stated)
Reply: 2.09 µM (inactive)

Task item: Input Cn1c2ccccc2n2c3ncccc3c(=O)cc12 , output reported GI50.
Reply: 45.9 µM (inactive)

Task item: Please look at this compound and report its GI50: C/C(=N\NC(=N)N)C(CN(CC(C)C)CC(C)C)C(=O)Nc1ccc(C)cc1C (configuration not stated)
Reply: > 100 µM (inactive)
